Provenance of the data: PubChem BioAssay (NCI)

System: NCI-H23 lung
Assay method text: NCI-60 one-dose screen, 48 h (100 = growth as untreated, 0 = no growth, -100 = all killed)
Measurement parameters: 10 µM unless noted
The panel holds about 83,000 compounds, 20% with a hit somewhere; the sample as a whole holds those more often.
Endpoint: growth (%)
Write the answer as a number in %, unit excluded.

Value of measured growth for the entry C/C1=C/C(=O)O[C@@H]2C[C@@H](CC[C@H](C)/C=C\C=C\CC1)O[C@@](OCCc1ccccc1)([C@@H]1CSC(=O)N1)C2 : 35.1

// Fc1ccc(C2=NN(c3ccccc3)C(c3sc(N(CCCl)CCCl)nc3Cl)C2)cc1 (stereo unspecified) : growth value = 85.4

Reported growth for CCOC(=O)/C=C(\C)Nc1ccc(N/C(C)=C/C(=O)OCC)c2c1Oc1ccccc1O2 was 89.7

Entry CO[C@@H]1[C@H](OC(=O)NC(=O)CCl)CC[C@]2(CO2)[C@H]1[C@@]1(C)O[C@@H]1CC=C(C)C , growth reported as 64.1

Kindly note the recorded growth for O=C(CF)N(O)c1ccc(/C=C/c2ccccc2)cc1 , which is 60.7

growth in this record for NC(=O)C(Cl)Cl : 108
